test: Cell viability in PBL; assay type: cell-based; conditions: human, PHA-stimulated peripheral blood mononuclear cells (PBL); reduction of cell viability; Table 2
Observed Property: CC50 (µg/mL)
Note: unit µg/mL is implicit; provide only the numeric part.

The compound listed as Nc1cc(OCCOCP(=O)(O)O)nc(N)n1 [Compound 1] has a reported CC50 of 2.2

----------
List of EC50 values.
system: HSV-1 TK- VMW 1837; experiment: Antiviral activity, HSV-1 TK- VMW 1837, Table 1a; assay type: cell-based; conditions: Human alphaherpesvirus 1, read-out: Antiviral Activity EC50 HSV-1 TK- VMW 1837

Nc1cc(OCCOCP(=O)(O)O)ncn1    > 16 µg/mL
Cc1cc(OCCOCP(=O)(O)O)nc(N)n1    > 400 µg/mL

Record Nc1nc(OCCOCP(=O)(O)O)cc(=O)n1CCOCP(=O)(O)O , field EC50: > 400 µg/mL

# EC50 of CN(C)c1cc(OCCOCP(=O)(O)O)nc(N)n1 = > 400 µg/mL

Quick note, EC50 for Nc1cc(SCCOCP(=O)(O)O)nc(N)n1 landed at 48 µg/mL

Record summary for Nc1cc(OCCOCP(=O)(O)O)nc(N)n1 : reported EC50 = 9.6 µg/mL
